Parameter 'readout' = IC50; parameter 'system' = RAC-alpha serine/threonine-protein kinase (Homo sapiens, UniProt P31749).
Sequence (P31749 whole entry): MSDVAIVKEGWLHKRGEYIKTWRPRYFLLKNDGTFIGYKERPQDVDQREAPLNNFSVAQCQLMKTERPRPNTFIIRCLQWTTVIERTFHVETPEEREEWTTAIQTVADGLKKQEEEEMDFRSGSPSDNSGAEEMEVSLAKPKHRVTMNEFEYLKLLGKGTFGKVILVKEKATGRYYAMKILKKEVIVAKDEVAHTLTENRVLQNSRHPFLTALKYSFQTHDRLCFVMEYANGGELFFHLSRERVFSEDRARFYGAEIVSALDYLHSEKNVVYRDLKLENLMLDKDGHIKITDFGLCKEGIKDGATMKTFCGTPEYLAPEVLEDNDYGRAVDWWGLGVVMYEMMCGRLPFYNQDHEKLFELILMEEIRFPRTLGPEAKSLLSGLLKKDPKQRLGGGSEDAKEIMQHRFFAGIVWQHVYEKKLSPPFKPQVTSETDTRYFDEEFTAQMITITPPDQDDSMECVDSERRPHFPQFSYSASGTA

entrySmiles: Cc1n[nH]c2sc(C(N)=O)c(NC(=O)c3cccc(Cl)c3)c12
testedSystem: RAC-alpha serine/threonine-protein kinase (Homo sapiens, UniProt P31749)
IC50: > 100 µM
//
entrySmiles: CC(=O)Nc1c(C(N)=O)sc2n[nH]c(C)c12
testedSystem: RAC-alpha serine/threonine-protein kinase (Homo sapiens, UniProt P31749)
IC50: > 20 µM
//
entrySmiles: O=C(NCCc1ccccc1)c1cc2c(-c3ccccc3)n[nH]c2s1
testedSystem: RAC-alpha serine/threonine-protein kinase (Homo sapiens, UniProt P31749)
IC50: > 20 µM
//
entrySmiles: COC(=O)c1cc2c(CN3CCCCC3)n[nH]c2s1
testedSystem: RAC-alpha serine/threonine-protein kinase (Homo sapiens, UniProt P31749)
IC50: > 100 µM
//
entrySmiles: Cc1n[nH]c2sc(C(N)=O)cc12
testedSystem: RAC-alpha serine/threonine-protein kinase (Homo sapiens, UniProt P31749)
IC50: > 20 µM

Asked: Form field - read-out: IC50; system: RAC-alpha serine/threonine-protein kinase (Homo sapiens, UniProt P31749); submitted item: `CCCCNC(=O)c1cc2c(C)n[nH]c2s1`
Given back: > 20 µM

Asked: Form field - read-out: IC50; system: RAC-alpha serine/threonine-protein kinase (Homo sapiens, UniProt P31749); submitted item: `CCCCN(C)C(=O)c1cc2c(C)n[nH]c2s1`
Given back: > 20 µM

---

Parameter 'readout' = IC50; parameter 'system' = Vascular endothelial growth factor receptor 2 (Homo sapiens).
Sequence (P35968 whole entry): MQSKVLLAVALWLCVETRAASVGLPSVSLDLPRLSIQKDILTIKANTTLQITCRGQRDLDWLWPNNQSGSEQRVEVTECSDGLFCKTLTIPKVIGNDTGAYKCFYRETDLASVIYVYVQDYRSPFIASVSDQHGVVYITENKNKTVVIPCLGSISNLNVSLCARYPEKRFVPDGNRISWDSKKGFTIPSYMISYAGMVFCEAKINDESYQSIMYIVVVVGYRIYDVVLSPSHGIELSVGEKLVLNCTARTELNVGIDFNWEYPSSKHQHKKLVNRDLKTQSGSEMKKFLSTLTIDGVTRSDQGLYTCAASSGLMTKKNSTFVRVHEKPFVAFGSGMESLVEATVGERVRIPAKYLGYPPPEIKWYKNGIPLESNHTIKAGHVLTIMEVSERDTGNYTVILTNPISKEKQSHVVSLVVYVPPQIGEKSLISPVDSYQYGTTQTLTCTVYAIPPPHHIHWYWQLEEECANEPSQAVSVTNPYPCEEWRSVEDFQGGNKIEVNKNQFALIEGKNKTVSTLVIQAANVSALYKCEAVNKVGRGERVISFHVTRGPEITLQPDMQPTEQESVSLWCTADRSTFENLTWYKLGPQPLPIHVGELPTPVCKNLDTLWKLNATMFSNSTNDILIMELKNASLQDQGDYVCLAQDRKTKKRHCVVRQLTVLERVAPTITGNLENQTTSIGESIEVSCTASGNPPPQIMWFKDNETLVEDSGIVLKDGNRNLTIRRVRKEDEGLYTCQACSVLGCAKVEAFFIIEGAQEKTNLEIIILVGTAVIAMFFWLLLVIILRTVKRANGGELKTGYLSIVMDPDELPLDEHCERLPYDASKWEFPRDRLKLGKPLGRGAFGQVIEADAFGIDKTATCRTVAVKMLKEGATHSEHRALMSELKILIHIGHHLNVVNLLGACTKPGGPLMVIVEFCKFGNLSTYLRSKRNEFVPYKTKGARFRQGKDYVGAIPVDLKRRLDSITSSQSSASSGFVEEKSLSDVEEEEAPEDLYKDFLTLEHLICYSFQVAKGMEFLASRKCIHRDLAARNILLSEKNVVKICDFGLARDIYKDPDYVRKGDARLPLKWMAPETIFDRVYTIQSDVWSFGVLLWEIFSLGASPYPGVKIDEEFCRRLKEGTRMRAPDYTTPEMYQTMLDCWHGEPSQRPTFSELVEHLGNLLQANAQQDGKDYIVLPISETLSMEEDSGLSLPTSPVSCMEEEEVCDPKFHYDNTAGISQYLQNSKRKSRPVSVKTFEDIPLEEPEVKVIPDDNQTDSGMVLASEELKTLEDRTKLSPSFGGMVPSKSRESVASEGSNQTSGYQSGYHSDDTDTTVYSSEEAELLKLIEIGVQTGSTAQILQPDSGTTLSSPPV
Reply numerically in µM, unit not repeated.

Before answering, review these 5 worked examples.
entrySmiles: Cc1n[nH]c2sc(C(N)=O)c(NC(=O)COc3ccccc3)c12
testedSystem: Vascular endothelial growth factor receptor 2 (Homo sapiens)
observationType: IC50
quantityUnit: µM
number: 11
//
entrySmiles: COC(=O)C(=O)Nc1c(C(N)=O)sc2[nH]nc(C)c12
testedSystem: Vascular endothelial growth factor receptor 2 (Homo sapiens)
observationType: IC50
quantityUnit: µM
number: 17
//
entrySmiles: COC(=O)c1cc2c(C)n[nH]c2s1
testedSystem: Vascular endothelial growth factor receptor 2 (Homo sapiens)
observationType: IC50
quantityUnit: µM
number: 23
//
entrySmiles: Cc1n[nH]c2sc(C(=O)NCc3ccccc3)cc12
testedSystem: Vascular endothelial growth factor receptor 2 (Homo sapiens)
observationType: IC50
quantityUnit: µM
number: 12
//
entrySmiles: O=C(NCc1ccccc1)c1cc2c(-c3ccccc3)n[nH]c2s1
testedSystem: Vascular endothelial growth factor receptor 2 (Homo sapiens)
observationType: IC50
quantityUnit: µM
number: 0.5

Okay, next one:
Asked: Form field - read-out: IC50; system: Vascular endothelial growth factor receptor 2 (Homo sapiens); submitted item: `O=C(NCCc1ccccc1)c1cc2c(-c3ccccc3)n[nH]c2s1`
Given back: 2

---

- testedSystem: Serine/threonine-protein kinase PLK1 (Homo sapiens)
- Sequence (P53350 whole entry): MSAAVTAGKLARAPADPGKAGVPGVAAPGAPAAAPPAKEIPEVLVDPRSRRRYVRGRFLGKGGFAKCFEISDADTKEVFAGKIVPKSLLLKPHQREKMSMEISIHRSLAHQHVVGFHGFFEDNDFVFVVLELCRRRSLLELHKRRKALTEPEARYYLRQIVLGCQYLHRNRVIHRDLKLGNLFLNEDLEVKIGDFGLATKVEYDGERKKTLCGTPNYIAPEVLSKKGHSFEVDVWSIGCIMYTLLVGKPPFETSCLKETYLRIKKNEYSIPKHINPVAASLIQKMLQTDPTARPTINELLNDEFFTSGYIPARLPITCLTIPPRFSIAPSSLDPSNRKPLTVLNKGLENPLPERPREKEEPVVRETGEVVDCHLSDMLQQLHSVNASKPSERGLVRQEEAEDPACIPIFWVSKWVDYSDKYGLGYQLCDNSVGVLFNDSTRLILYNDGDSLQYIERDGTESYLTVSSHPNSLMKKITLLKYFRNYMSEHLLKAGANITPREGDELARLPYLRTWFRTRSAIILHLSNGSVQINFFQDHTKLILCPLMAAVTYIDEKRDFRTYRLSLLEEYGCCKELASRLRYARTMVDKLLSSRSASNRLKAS
pIC50: −log10 of the molar value.
observationType: pIC50

Before answering, review these 5 worked examples.
entrySmiles: O=C(NCCc1ccccc1)c1cc2c(-c3ccccc3)n[nH]c2s1
pIC50: 4.77
--
entrySmiles: CC(=O)Nc1c(C(N)=O)sc2n[nH]c(C)c12
pIC50: < 4.70
--
entrySmiles: Cc1n[nH]c2sc(C(N)=O)cc12
pIC50: < 4.70
--
entrySmiles: CN1CCN(C(=O)c2cc3c(-c4ccccc4)n[nH]c3s2)CC1
pIC50: < 4.70
--
entrySmiles: Cc1n[nH]c2sc(C(=O)NCc3ccccc3)cc12
pIC50: 4.80

Asked: Form field - read-out: pIC50; system: Serine/threonine-protein kinase PLK1 (Homo sapiens); submitted item: `Cc1n[nH]c2sc(C(N)=O)c(NC(=O)c3cccc(Cl)c3)c12`
Given back: < 4.00

Asked: Form field - read-out: pIC50; system: Serine/threonine-protein kinase PLK1 (Homo sapiens); submitted item: `COC(=O)c1cc2c(C)n[nH]c2s1`
Given back: < 4.00

Asked: Form field - read-out: pIC50; system: Serine/threonine-protein kinase PLK1 (Homo sapiens); submitted item: `Cc1n[nH]c2sc(C(=O)NC3CCCCC3)cc12`
Given back: < 4.70

Cited source for all entries: ChEMBL document CHEMBL1148538
